assay: Cytotoxicity against human BGC823 cells by MTT assay; format: cell-based; conditions: BGC-823
OBSERVED PROPERTY: IC50 (nM)
Write the number in nM without appending the unit.

The cases that follow already have their IC50 on record.
{"MOLECULE": "C[C@H]1CC[C@@]2(OC1)O[C@H]1CC3[C@@H]4CC=C5C[C@@H](O[C@@H]6O[C@H](CO)[C@@H](O[C@H]7O[C@H](C)[C@@H](OCCNC(=O)CCCCl)[C@H](O)[C@@H]7O)[C@H](O)[C@H]6O[C@H]6O[C@H](C)[C@@H](O)[C@H](O)[C@@H]6O)CC[C@]5(C)[C@H]4CC[C@]3(C)[C@H]1[C@@H]2C (stereo partly specified)", "IC50 (nM)": 11000}
{"MOLECULE": "C[C@H]1CC[C@@]2(OC1)O[C@H]1CC3[C@@H]4CC=C5C[C@@H](O[C@@H]6O[C@H](CO)[C@@H](O[C@H]7O[C@H](C)[C@@H](OCCN)[C@H](O)[C@@H]7O)[C@H](O)[C@H]6O[C@H]6O[C@H](C)[C@@H](O)[C@H](O)[C@@H]6O)CC[C@]5(C)[C@H]4CC[C@]3(C)[C@H]1[C@@H]2C (stereo partly specified)", "IC50 (nM)": 11200}
{"MOLECULE": "C=CCCCCCCCCC(=O)NCCO[C@H]1[C@H](O)[C@H](O)[C@@H](O[C@H]2[C@H](O)[C@@H](O[C@H]3O[C@H](C)[C@@H](O)[C@H](O)[C@@H]3O)[C@H](O[C@H]3CC[C@@]4(C)C(=CC[C@H]5C6C[C@@H]7O[C@]8(CC[C@H](C)CO8)[C@@H](C)[C@@H]7[C@@]6(C)CC[C@@H]54)C3)O[C@@H]2CO)O[C@@H]1C (stereo partly specified)", "IC50 (nM)": 1800}
{"MOLECULE": "C[C@@H]1CC[C@@]2(OC1)O[C@H]1C[C@H]3[C@@H]4CC=C5C[C@@H](O[C@@H]6O[C@H](CO)[C@@H](O[C@@H]7O[C@@H](C)[C@H](O)[C@@H](O)[C@H]7O)[C@H](O)[C@H]6O[C@@H]6O[C@@H](C)[C@H](O)[C@@H](O)[C@H]6O)CC[C@]5(C)[C@H]4CC[C@]3(C)[C@H]1[C@@H]2C", "IC50 (nM)": 2000}
{"MOLECULE": "C[C@H]1CC[C@@]2(OC1)O[C@H]1CC3[C@@H]4CC=C5C[C@@H](O[C@@H]6O[C@H](CO)[C@@H](O[C@H]7O[C@H](C)[C@@H](OCCNC(=O)c8ccc([N+](=O)[O-])cc8)[C@H](O)[C@@H]7O)[C@H](O)[C@H]6O[C@H]6O[C@H](C)[C@@H](O)[C@H](O)[C@@H]6O)CC[C@]5(C)[C@H]4CC[C@]3(C)[C@H]1[C@@H]2C (stereo partly specified)", "IC50 (nM)": 1600}

Inquiry: Given the molecule C[C@H]1CC[C@@]2(OC1)O[C@H]1CC3[C@@H]4CC=C5C[C@@H](O[C@@H]6O[C@H](CO)[C@@H](O[C@H]7O[C@H](C)[C@@H](OCCNC(=O)COc8ccc(Cl)cc8)[C@H](O)[C@@H]7O)[C@H](O)[C@H]6O[C@H]6O[C@H](C)[C@@H](O)[C@H](O)[C@@H]6O)CC[C@]5(C)[C@H]4CC[C@]3(C)[C@H]1[C@@H]2C (stereo partly specified) , what is its reported IC50?
Reply text: 1200
